Record form. Attribute: Activity. Fill in for each entry.
- Test system: Mus musculus
- ASSAY: Locomotor activity in CD1 mouse assessed as stimulation at 100 mg/kg, ip after 1 hr relative to control
- Type: functional
- ASSAY_CONTEXT: route intraperitoneal
Report as a plain number; the unit % is understood.

Identify measured Activity obtained with Mus musculus for COC(=O)[C@@H]1C2CCC(C[C@H]1c1ccc(Cl)cc1)N2C (stereo partly specified) . 487

Identify measured Activity obtained with Mus musculus for COC(=O)[C@H]1[C@@H](OC(=O)c2ccccc2)C[C@@H]2CC[C@H]1N2C [COCAINE] . 269

Identify measured Activity obtained with Mus musculus for COC(=O)[C@@H]1C2CCC(C[C@H]1c1ccc(C)cc1)N2C (stereo partly specified) . 843

Identify measured Activity obtained with Mus musculus for COC(=O)[C@@H]1C2CCC(C[C@H]1c1ccccc1)N2C (stereo partly specified) . 338

Identify measured Activity obtained with Mus musculus for COC(=O)[C@@H]1C2CCC(C[C@H]1c1ccc(F)cc1)N2C (stereo partly specified) . 575

Identify measured Activity obtained with Mus musculus for COC(=O)[C@@H]1C2CCC(C[C@H]1c1ccc(I)cc1)N2C (stereo partly specified) . 328
